target: Nuclear receptor subfamily 4 group A member 2 (Homo sapiens); assay: ATG_NURR1_TRANS: Attagene TRANS-FACTORIAL HepG2 Assay for human Nuclear Receptor Related Protein 1 (NURR1) (AID 2282985); conditions: HepG2 Attagene TRANS reporter, mRNA readout
Results filed as inconclusive are left out. Active and inactive are the calls of the source. Rule for the calls: active = hit-call score of the fitted dose curve at least 0.9, where 1 is the maximum; inconclusive = response in the unintended direction; inactive = score below 0.9.
Outcomes you can answer with include only these: active, inactive

Would you please look over these solved cases?
{"molecule": "c1cc[c]([Bi]([c]2ccccc2)[c]2ccccc2)cc1", "targetDesc": "Nuclear receptor subfamily 4 group A member 2 (Homo sapiens)", "label": "active"}
{"molecule": "Oc1cccc2ccccc12", "targetDesc": "Nuclear receptor subfamily 4 group A member 2 (Homo sapiens)", "label": "inactive"}

# ---- query molecule ----
Exercise: Call for entry CCCCCCCC#N :
Solution: inactive

* * *

read-out: Vascular cell adhesion molecule 1 (VCAM1), VCAM1 (gene 7412); test: BSK_LPS_VCAM1: BioMAP Diversity Plus: LPS Assay for Vascular cell adhesion molecule 1 (VCAM1) Biomarker Activity (AID 2283086); details: primary human HUVEC with PBMC; actives raise or lower the signal
The source made the active and inactive calls. Rule for the calls: active = hit-call score of the fitted dose curve at least 0.9, where 1 is the maximum; inactive = score below 0.9.
quantity: outcome

Past entries and their recorded results:
{"compound": "C1CN(CCOCCN2CCOCC2)CCO1", "quantity": "outcome", "endpointResult": "inactive"}
{"compound": "CCCCC(CC)COC(=O)C=Cc1ccc(OC)cc1 (centres undefined)", "quantity": "outcome", "endpointResult": "inactive"}
{"compound": "COc1ccccc1Oc1c(NS(=O)(=O)c2ccc(C(C)(C)C)cc2)nc(-c2ncccn2)nc1OCCO", "quantity": "outcome", "endpointResult": "inactive"}
{"compound": "CC[N+](CC)(CC(=O)Nc1c(C)cccc1C)Cc1ccccc1 (tested in a mixture with another compound)", "quantity": "outcome", "endpointResult": "inactive"}
{"compound": "Cc1cc(-n2nc3ccc(Cl)cc3n2)c(O)c(C(C)(C)C)c1", "quantity": "outcome", "endpointResult": "inactive"}

Kindly give each listed record's outcome.
1. CCC(C)=NO
2. O=C(C(=O)c1ccccc1)c1ccccc1

Solution:
["inactive", "inactive"]

Your task in this section: give outcome for each listed record.
1. CC(C)C1OCCN1CCOC(=O)NCCCCCCNC(=O)OCCN1CCOC1C(C)C (centres undefined)
2. CC(C)CC(=O)CC(C)CC(C)C (centres undefined)

Solution:
inactive
inactive

* * *

assay: ACEA_ER_AUC_viability: ACEA Biosciences xCELLigence Real-Time Cell Analysis on Estrogen Receptor Agonism for Viability (AID 2283782);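 note: continuous compound exposure with impedance area under curve over 80 h; hit means loss of impedance signal meaning reduced cell growth or viability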
Records with an inconclusive call do not appear. Active and inactive are the calls of the source. Rule for the calls: active = hit-call score of the fitted dose curve at least 0.9, where 1 is the maximum; inconclusive = response in the unintended direction; inactive = score below 0.9.
Would you mind answering with one of these outcomes? active, inactive

{"molecule": "COc1c2occc2cc2ccc(=O)oc12", "label": "inactive"}
{"molecule": "O=C(O)c1cc(Cl)cc(Cl)c1O", "label": "inactive"}
{"molecule": "CN(C)CCC(c1ccc(Cl)cc1)c1ccccn1 (stereo not drawn)", "label": "inactive"}
{"molecule": "Cc1cc2nc3c(=O)[nH]c(=O)nc-3n(C[C@H](O)[C@H](O)[C@H](O)CO)c2cc1C", "label": "active"}
{"molecule": "CCC(C)(CCC(C)C)C(=O)O (stereo not drawn)", "label": "inactive"}
{"molecule": "Sc1nc2ccccc2s1", "label": "active"}
{"molecule": "CCCCCCOC(=O)CCCCCCCC(=O)OCCCCCC", "label": "active"}
{"molecule": "CC(C)CC(=O)O", "label": "inactive"}

Exercise: Record lookup: outcome of this test for Cc1cc(O)cc(C)c1Cl ?
Solution: active

Exercise: // outcome(item) with item = C/C=C(\C)C(=O)OCC/C=C\CC
Solution: inactive

Exercise: Just curious, what result did CCCCCCC1CCC(=O)O1 (stereo not drawn) get here?
Solution: inactive

Exercise: Field: outcome | Entry: CCCCCCC1CCCC(=O)O1 (stereo not drawn)
Solution: inactive

Exercise: Test call, this molecule: CC/C=C\CCCCCO
Solution: inactive

Exercise: Recorded call for CCOC(=O)COc1ccc(C)cc1 ?
Solution: inactive

Exercise: Just curious, what result did F[B-](F)(F)F get here?
Solution: inactive

Exercise: I would be grateful if you could indicate the recorded call for CCCCCC1CCCC(=O)O1 (stereo not drawn) .
Solution: inactive

Exercise: Recorded test outcome, item O=C(c1ccccc1)c1ccccc1O
Solution: active

Exercise: For O=C(O)CCCc1c[nH]c2ccccc12 , which call appears in the assay record?
Solution: inactive
